Molecular target: Smo wild type (Homo sapiens, UniProt Q99835)
Sequence (Q99835 28-787): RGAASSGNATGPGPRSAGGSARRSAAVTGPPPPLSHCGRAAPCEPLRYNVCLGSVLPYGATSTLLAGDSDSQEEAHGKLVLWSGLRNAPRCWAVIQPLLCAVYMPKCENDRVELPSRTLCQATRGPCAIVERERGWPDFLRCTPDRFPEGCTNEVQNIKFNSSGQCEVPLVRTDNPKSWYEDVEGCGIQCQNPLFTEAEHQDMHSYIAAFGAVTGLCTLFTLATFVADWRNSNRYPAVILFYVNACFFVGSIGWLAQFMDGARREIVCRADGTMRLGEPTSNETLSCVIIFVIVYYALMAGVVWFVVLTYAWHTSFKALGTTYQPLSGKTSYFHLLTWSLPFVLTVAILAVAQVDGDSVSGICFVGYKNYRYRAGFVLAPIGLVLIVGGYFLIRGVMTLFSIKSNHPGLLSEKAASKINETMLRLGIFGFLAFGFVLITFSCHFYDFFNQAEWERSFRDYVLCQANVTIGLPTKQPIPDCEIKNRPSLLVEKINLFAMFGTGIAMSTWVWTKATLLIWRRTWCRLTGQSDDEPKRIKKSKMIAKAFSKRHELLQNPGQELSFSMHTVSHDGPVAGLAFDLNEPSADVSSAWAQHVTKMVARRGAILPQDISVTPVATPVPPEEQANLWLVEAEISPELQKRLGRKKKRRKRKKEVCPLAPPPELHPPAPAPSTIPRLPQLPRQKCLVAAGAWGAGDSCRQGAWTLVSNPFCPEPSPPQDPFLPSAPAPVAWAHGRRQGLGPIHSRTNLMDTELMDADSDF
Experiment: Reporter assay of C3H10T1/2-Gli-Luc cells transfected with wild-type Smo, without SAG
Details: C3H10T1/2 cells transfected with pLPCX-SMO, no SAG, 48 hr; read-out: Inhibition of C3H10T1/2-Gli-Luc-Smo-WT [IC50
pIC50: −log10 of the molar value.
recordedEndpoint: pIC50

The following molecules have reported results that may help.
{"columns": ["structureSmilesString", "pIC50"],
 "data": [
  ["CSc1cnc(Nc2ccc(C(=O)Nc3cc(CN4CCOCC4)ccc3C)cc2F)nc1-c1ccc(OC(F)(F)F)cc1", "> 7.00"],
  ["CSc1cnc(Nc2ccc(C(=O)Nc3cccc(CN4CCOCC4)c3)cc2)nc1-c1ccc(OC(F)(F)F)cc1", "> 7.00"],
  ["COc1cnc(Nc2ccc(C(=O)Nc3cc(CN4CCOCC4)ccc3C)cc2)nc1-c1ccc(OC(F)(F)F)cc1", "> 7.00"],
  ["CSc1cnc(Nc2ccc(C(=O)Nc3cc(CN4CCOCC4)ccc3C)cc2)nc1-c1ccc(C(F)(F)F)cc1", "> 7.00"],
  ["COc1cccc(C)c1NC(=O)c1ccc(Nc2ncc(SC)c(-c3cccnc3F)n2)cc1", "6.00 to 7.00"],
  ["CCOc1ccc(-c2nc(Nc3ccc(C(=O)Nc4ccc(Cl)c(C(F)(F)F)c4)cc3)ncc2SC)cn1", "6.00 to 7.00"]
]}

Each molecule below has a reported value. Please supply its pIC50.
1. COc1cccc(OC)c1NC(=O)c1ccc(Nc2ncc(SC)c(-c3ccc(OC(F)(F)F)cc3)n2)cc1
2. CSc1cnc(Nc2ccc(C(=O)Nc3cc(CN4CCOCC4)ccc3C)cc2F)nc1-c1ccc(F)cc1
3. COc1cnc(Nc2ccc(C(=O)Nc3cc(CN4CCN(C)CC4)ccc3C)cc2)nc1-c1ccc(C#N)cc1
4. CSc1cnc(Nc2ccc(C(=O)Nc3cc(CN4CCOCC4)ccc3C)cc2)nc1-c1ccc(F)cc1

["> 7.00", "> 7.00", "> 7.00", "> 7.00"]

Lab note: each molecule below needs its pIC50 filled in.
1. CSc1cnc(Nc2ccc(C(=O)Nc3cc(CN(C)C)ccc3C)cc2)nc1-c1ccc(F)cc1
2. CSc1cnc(Nc2ccc(C(=O)Nc3cc(CN4CCCCC4)ccc3C)cc2)nc1-c1ccc(F)cc1
3. COc1cnc(Nc2ccc(C(=O)Nc3cc(CN4CCOCC4)ccc3C)cc2)nc1-c1ccc(C#N)cc1
4. CSc1cnc(Nc2ccc(C(=O)Nc3cc(CN4CCOCC4)ccc3C)cc2)nc1-c1ccccc1
5. CSc1cnc(Nc2ccc(C(=O)Nc3cc(CN4CCNCC4)ccc3C)cc2F)nc1-c1ccc(F)cc1

1. > 7.00
2. > 7.00
3. 6.00 to 7.00
4. > 7.00
5. 6.00 to 7.00
